molecular target: human NOX4 (Homo sapiens, UniProt Q9NPH5); construct: expressed in transfected cells; membrane fraction used; test: Cell free membrane based in vitro NOX4 assay: H2O2 production by membranes expressing human NOX4, measured with Amplex Red; type: biochemical; details: 10.0 μM compound, read-out: Percentage inhibition at 10.0 μM
Sequence (Q9NPH5 whole entry): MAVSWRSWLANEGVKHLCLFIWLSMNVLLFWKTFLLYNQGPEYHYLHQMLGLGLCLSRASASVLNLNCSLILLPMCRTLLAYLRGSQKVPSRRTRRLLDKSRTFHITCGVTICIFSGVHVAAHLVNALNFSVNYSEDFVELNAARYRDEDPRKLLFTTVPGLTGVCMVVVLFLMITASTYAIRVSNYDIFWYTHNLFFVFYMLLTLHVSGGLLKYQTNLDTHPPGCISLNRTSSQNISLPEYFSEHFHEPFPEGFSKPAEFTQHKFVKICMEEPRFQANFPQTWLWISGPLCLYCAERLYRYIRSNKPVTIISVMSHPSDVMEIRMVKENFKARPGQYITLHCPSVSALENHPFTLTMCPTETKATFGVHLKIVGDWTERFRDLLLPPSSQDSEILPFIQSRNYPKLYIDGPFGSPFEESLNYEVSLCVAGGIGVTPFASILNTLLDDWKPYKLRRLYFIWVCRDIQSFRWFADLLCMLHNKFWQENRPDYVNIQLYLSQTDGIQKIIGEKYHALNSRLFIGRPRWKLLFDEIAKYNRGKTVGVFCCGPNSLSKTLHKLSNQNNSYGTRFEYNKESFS
Sequence (P13498 whole entry partner): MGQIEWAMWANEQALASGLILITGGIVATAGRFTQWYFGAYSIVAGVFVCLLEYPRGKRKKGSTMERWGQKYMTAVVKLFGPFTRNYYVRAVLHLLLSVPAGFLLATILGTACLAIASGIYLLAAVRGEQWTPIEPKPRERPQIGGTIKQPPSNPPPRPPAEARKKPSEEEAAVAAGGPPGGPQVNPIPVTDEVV
Parameter measured: inhibition at 10 µM (%)
Reply numerically in %, unit not repeated.

Input: Value lookup for inhibition at 10 µM; key = Cn1nc(Cc2ccccc2Cl)c2c(=O)c(O)c(-c3ccccc3Cl)[nH]c21
Output: 93.2

Input: Value lookup for inhibition at 10 µM; key = Cc1nn(-c2ccc(F)c(F)c2)c2[nH]c(-c3c(F)cccc3F)c(O)c(=O)c12
Output: 100

Input: Value lookup for inhibition at 10 µM; key = CCn1ncc2c(=O)c(O)c(-c3c(F)cccc3F)[nH]c21
Output: 100

Input: Value lookup for inhibition at 10 µM; key = CCn1nc(C(F)(F)F)c2c(=O)c(O)c(-c3ccccc3Cl)[nH]c21
Output: 82.1

Input: Value lookup for inhibition at 10 µM; key = O=c1c(O)c(-c2ccccc2Cl)[nH]c2c1c(C(F)(F)F)nn2CCN1CCOCC1
Output: 84.4

Input: Value lookup for inhibition at 10 µM; key = Cn1nc(C(F)(F)F)c2c(=O)c(O)c(-c3ccc(O)cc3)[nH]c21
Output: 90.7

Input: Value lookup for inhibition at 10 µM; key = Cn1nc(C(F)(F)F)c2c(=O)c(O)c(-c3ccc(F)cc3Cl)[nH]c21
Output: 100

Input: Value lookup for inhibition at 10 µM; key = Cc1nn(-c2ccc(F)cc2)c2[nH]c(-c3c(F)cccc3F)c(O)c(=O)c12
Output: 100

* * *

Give measured IC50 for each item. Keep answers brief.
target: human NOX4 (Homo sapiens, UniProt Q9NPH5); construct: expressed in transfected cells; membrane fraction used; test: Cell free membrane based in vitro NOX4 assay: H2O2 production by membranes expressing human NOX4, measured with Amplex Red; type: biochemical; conditions: class symbols

Input: Provide the documented IC50 with human NOX4 (Homo sapiens, UniProt Q9NPH5) as the system for Cn1ncc2c(=O)c(O)c(-c3ccccc3Cl)[nH]c21
Output: 100 to 150 nM

Input: Provide the documented IC50 with human NOX4 (Homo sapiens, UniProt Q9NPH5) as the system for CCc1nn(CCN2CCN(CC)CC2)c2[nH]c(-c3c(F)cccc3F)c(O)c(=O)c12
Output: > 150 nM

Input: Provide the documented IC50 with human NOX4 (Homo sapiens, UniProt Q9NPH5) as the system for CCc1nn(CCN2C[C@@H](C)O[C@@H](C)C2)c2[nH]c(-c3c(F)cccc3F)c(O)c(=O)c12
Output: < 50 nM

Input: Provide the documented IC50 with human NOX4 (Homo sapiens, UniProt Q9NPH5) as the system for O=c1c(O)c(-c2c(F)cccc2F)[nH]c2c1c(CO)nn2C1CC1
Output: 100 to 150 nM

Input: Provide the documented IC50 with human NOX4 (Homo sapiens, UniProt Q9NPH5) as the system for CCc1nn(CCC2CCOCC2)c2[nH]c(-c3cccc(C(F)(F)F)c3F)c(O)c(=O)c12
Output: > 150 nM

Input: Provide the documented IC50 with human NOX4 (Homo sapiens, UniProt Q9NPH5) as the system for CCc1nn(CCS(C)(=O)=O)c2[nH]c(-c3c(F)cccc3F)c(O)c(=O)c12
Output: 50 to 100 nM

Input: Provide the documented IC50 with human NOX4 (Homo sapiens, UniProt Q9NPH5) as the system for Cc1nn(CC(F)(F)F)c2[nH]c(-c3ccccc3Cl)c(O)c(=O)c12
Output: 100 to 150 nM

Input: Provide the documented IC50 with human NOX4 (Homo sapiens, UniProt Q9NPH5) as the system for COc1ccc(-c2[nH]c3c(c(C)nn3CC(F)(F)F)c(=O)c2O)c(F)c1
Output: > 150 nM

Input: Provide the documented IC50 with human NOX4 (Homo sapiens, UniProt Q9NPH5) as the system for Cc1nn(C)c2[nH]c(-c3cc(Cl)ccc3Cl)c(O)c(=O)c12
Output: < 50 nM

Input: Provide the documented IC50 with human NOX4 (Homo sapiens, UniProt Q9NPH5) as the system for Cc1nn(-c2cccc(F)c2)c2[nH]c(-c3ccccc3Cl)c(O)c(=O)c12
Output: < 50 nM

Input: Provide the documented IC50 with human NOX4 (Homo sapiens, UniProt Q9NPH5) as the system for O=c1c(O)c(-c2c(F)cccc2F)[nH]c2c1cnn2-c1ccc(F)cc1
Output: > 150 nM

Input: Provide the documented IC50 with human NOX4 (Homo sapiens, UniProt Q9NPH5) as the system for CCn1nc(C)c2c(=O)c(O)c(-c3c(F)cc(NS(C)(=O)=O)cc3F)[nH]c21
Output: 50 to 100 nM

Input: Provide the documented IC50 with human NOX4 (Homo sapiens, UniProt Q9NPH5) as the system for Cc1nn(C)c2[nH]c(-c3ccc(Cl)cc3Cl)c(O)c(=O)c12
Output: 100 to 150 nM

Input: Provide the documented IC50 with human NOX4 (Homo sapiens, UniProt Q9NPH5) as the system for Cc1nn(CC(C)C)c2[nH]c(-c3c(F)cccc3F)c(O)c(=O)c12
Output: 50 to 100 nM

Input: Provide the documented IC50 with human NOX4 (Homo sapiens, UniProt Q9NPH5) as the system for Cc1nc2c(=O)c(O)c(-c3ccccc3Cl)[nH]c2s1
Output: > 150 nM

Input: Provide the documented IC50 with human NOX4 (Homo sapiens, UniProt Q9NPH5) as the system for COc1cc(F)c(-c2[nH]c3c(c(C)nn3C)c(=O)c2O)c(F)c1
Output: 50 to 100 nM

Input: Provide the documented IC50 with human NOX4 (Homo sapiens, UniProt Q9NPH5) as the system for Cc1nn(C2CC2)c2[nH]c(-c3cccc(F)c3F)c(O)c(=O)c12
Output: > 150 nM

Input: Provide the documented IC50 with human NOX4 (Homo sapiens, UniProt Q9NPH5) as the system for CCn1nc(C)c2c(=O)c(O)c(-c3ccccc3F)[nH]c21
Output: > 150 nM

Input: Provide the documented IC50 with human NOX4 (Homo sapiens, UniProt Q9NPH5) as the system for Cn1nc(CO)c2c(=O)c(O)c(-c3ccccc3Cl)[nH]c21
Output: 50 to 100 nM

Input: Provide the documented IC50 with human NOX4 (Homo sapiens, UniProt Q9NPH5) as the system for Cn1nc(C(F)(F)F)c2c(=O)c(O)c(-c3cc(CNC(=O)C(C)(C)C)ccc3F)[nH]c21
Output: > 150 nM

Input: Provide the documented IC50 with human NOX4 (Homo sapiens, UniProt Q9NPH5) as the system for CCn1nc(C)c2c(=O)c(O)c(-c3c(F)cc(F)cc3F)[nH]c21
Output: > 150 nM

Input: Provide the documented IC50 with human NOX4 (Homo sapiens, UniProt Q9NPH5) as the system for CCn1nc(C)c2c(=O)c(O)c(-c3cc(F)ccc3F)[nH]c21
Output: > 150 nM

Input: Provide the documented IC50 with human NOX4 (Homo sapiens, UniProt Q9NPH5) as the system for CCc1nn(C)c2[nH]c(-c3ccc(OC)cc3F)c(O)c(=O)c12
Output: 100 to 150 nM

Input: Provide the documented IC50 with human NOX4 (Homo sapiens, UniProt Q9NPH5) as the system for Cc1nn(CCN2CCN(C)CC2)c2[nH]c(-c3cccc(C(F)(F)F)c3F)c(O)c(=O)c12
Output: > 150 nM

Input: Provide the documented IC50 with human NOX4 (Homo sapiens, UniProt Q9NPH5) as the system for Cc1nn(C)c2[nH]c(-c3ccccc3Cl)c(O)c(=O)c12
Output: < 50 nM

Input: Provide the documented IC50 with human NOX4 (Homo sapiens, UniProt Q9NPH5) as the system for CCc1nn(CCN2CCN(CC)CC2)c2[nH]c(-c3ccccc3Cl)c(O)c(=O)c12
Output: > 150 nM

Input: Provide the documented IC50 with human NOX4 (Homo sapiens, UniProt Q9NPH5) as the system for CCn1ncc2c(=O)c(O)c(-c3c(F)cccc3F)[nH]c21
Output: > 150 nM

Input: Provide the documented IC50 with human NOX4 (Homo sapiens, UniProt Q9NPH5) as the system for CCc1nn(CCN2CCN(C)CC2)c2[nH]c(-c3c(F)cccc3F)c(O)c(=O)c12
Output: < 50 nM

* * *

Give measured inhibition at 1 µM for each item. Keep answers brief.
Biological target: human NOX4 (Homo sapiens, UniProt Q9NPH5)
Construct: expressed in transfected cells; membrane fraction used
Experiment: Cell free membrane based in vitro NOX4 assay: H2O2 production by membranes expressing human NOX4, measured with Amplex Red
Assay type: biochemical
Details: 1.0 μM compound, read-out: Percentage inhibition at 1.0 μM
Method: The inhibition of NOX4 activity was measured as inhibition of formation of reactive oxygen species (ROS) from oxygen in cell free assays. […] Protein concentration was determined by Bradford reagent. H202 production by membranes expressing human NOX4 was measured using Amplex Red (Invitrogen) by following a slightly modified version of the manufacturer's instruction manual. […] IC50 value was calculated from concentration response curve by nonlinear regression analysis using GraphPad PRISM software.
Reply numerically in %, unit not repeated.

Input: Value lookup for inhibition at 1 µM; key = Cc1nn(CC(F)(F)F)c2[nH]c(-c3ccccc3Cl)c(O)c(=O)c12
Output: 98.2

Input: Value lookup for inhibition at 1 µM; key = Cc1nn(C)c2c(=O)c(O)c(-c3ccccc3Cl)[nH]c12
Output: 74.4

Input: Value lookup for inhibition at 1 µM; key = Cc1nn(CCN2CCNCC2)c2[nH]c(-c3ccccc3Cl)c(O)c(=O)c12
Output: 68.6

Input: Value lookup for inhibition at 1 µM; key = Cc1nn(C(C)C)c2[nH]c(-c3ccccc3Cl)c(O)c(=O)c12
Output: 82.1

Input: Value lookup for inhibition at 1 µM; key = Cn1nc(C2CCOCC2)c2c(=O)c(O)c(-c3c(F)cccc3F)[nH]c21
Output: 99.2

Input: Value lookup for inhibition at 1 µM; key = Cc1nn(CCN2CCN(C)CC2)c2[nH]c(-c3ccccc3Cl)c(O)c(=O)c12
Output: 100

Input: Value lookup for inhibition at 1 µM; key = Cc1nn(C)c2[nH]c(-c3ccc(Cl)cc3Cl)c(O)c(=O)c12
Output: 76.6
